experiment: AUC(0 to t) in Sprague-Dawley rat plasma at 20 mg/kg, po measured for 10 hrs by LC-MS/MS analysis; assay type: ADME, organism-based

{"molSmiles": "COc1cc(F)ccc1[C@H]1CSc2cc(O)ccc2[C@H]1c1ccc(OCCN2CC(CF)C2)cc1", "unitAnnotation": "ng·h/mL", "AUC(0-t) at 10 h": 3660}

* * *

The entries below come with measured IC50 values attached.
tested on: MCF7; assay: Antiproliferative activity against human MCF7 cells assessed as reduction in cell viability incubated for 6 days by CellTiter-Glo reagent based luminescence analysis; settings: Homo sapiens, MCF7, 144 h
measuredQuantity: IC50 (nM)

{"compound": "Oc1ccc2c(c1)OC[C@H](c1ccc(F)cc1F)[C@@H]2c1ccc(OCCN2CC(CF)C2)cc1 (racemic)", "testResult": 1.2}
{"compound": "Oc1ccc2c(c1)OC[C@H](c1ccc(Cl)cc1F)[C@@H]2c1ccc(OCCN2CC(CF)C2)cc1 (racemic)", "testResult": 4.2}
{"compound": "C[C@@H]1Cc2c([nH]c3ccccc23)[C@@H](c2c(F)cc(NC3CN(CCCF)C3)cc2F)N1CC(F)(F)CO", "testResult": 0.2}
{"compound": "COc1ccc([C@H]2COc3cc(O)ccc3[C@H]2c2ccc(OCCN3CC(CF)C3)cc2)c(F)c1 (racemic)", "testResult": 0.87}
{"compound": "C[C@@H]1Cc2c(ccc3[nH]ncc23)[C@@H](c2ccc(NC3CN(CCCF)C3)cn2)N1CC(F)(F)F", "testResult": 0.68}
{"compound": "Oc1ccc2c(c1)OC[C@H](C1CCOCC1)[C@@H]2c1ccc(OCCN2CC(CF)C2)cc1 (racemic)", "testResult": 1.6}
{"compound": "Oc1ccc2c(c1)OCC[C@H](c1ccc(F)cc1F)[C@@H]2c1ccc(OCCN2CC(CF)C2)cc1 (racemic)", "testResult": 47}
{"compound": "O=C(CN1CC(CF)C1)Nc1ccc([C@@H]2c3ccc(O)cc3OC[C@@H]2c2ccc(F)cc2F)cc1 (racemic)", "testResult": 243}
{"compound": "O=C(O)c1ccc2c(c1)CCCC(c1ccc(Cl)cc1Cl)=C2c1ccc(O[C@H]2CCN(CCCF)C2)cc1", "testResult": 3.9}
{"compound": "Oc1ccc2c(c1)OC[C@H](c1ccc(F)cc1F)[C@@H]2c1ccc(OCCN2CC(CF)C2)nc1 (racemic)", "testResult": 1.7}
{"compound": "Oc1ccc2c(c1)OC[C@H](c1ccc(F)cc1F)[C@@H]2c1ccc(NCCN2CC(CF)C2)cc1 (racemic)", "testResult": 9.3}
{"compound": "COc1cc(F)ccc1[C@H]1CSc2cc(O)ccc2[C@H]1c1ccc(OCCN2CC(CF)C2)c(F)c1 (racemic)", "testResult": 0.7}
{"compound": "COc1ccc([C@H]2CSc3cc(O)ccc3[C@H]2c2ccc(OCCN3CC(CF)C3)cc2)c(F)c1 (racemic)", "testResult": 0.4}
{"compound": "COc1cc([C@@H]2c3ccc(O)cc3OC[C@@H]2c2ccc(F)cc2F)ccc1OCCN1CC(CF)C1 (racemic)", "testResult": 4.8}
{"compound": "COc1ccc([C@H]2COc3cc(O)ccc3[C@H]2c2ccc(OCCN3CC(CF)C3)cc2)cn1 (racemic)", "testResult": 0.86}
